assay: Locust hemolymph kinetics after injection into the hemolymph (LCMS)
settings: Locusta migratoria, in vivo, 0.4 mg per locust (approximately)
Procedure: The insects may be obtained from local suppliers or bred in house. The grasshoppers were reared under crowded conditions at 28° C. and a 12:12 dark:light photocycle and fed fresh grass and bran. […] At various time points after administration hemolymph samples are taken for quantitative determination of drug concentration in the hemolymph. […] Drug concentration is analysed by HPLC, LC/MSMS or other methods. […] The drug concentration in the tissues is determined as above. […]
readout-type: concentration at 45 min (ng/mL)
Use ng/mL as the unit, but write only the number.

Solved entries:
molecule: CN(C)C(=O)C(CCN1CCC(O)(c2ccc(Cl)cc2)CC1)(c1ccccc1)c1ccccc1 [loperamide]
concentration at 45 min / ng/mL: 1700
--
molecule: O=C1CC2(CCCC2)CC(=O)N1CCCCN1CCN(c2ncccn2)CC1
concentration at 45 min / ng/mL: 3800

Need concentration at 45 min, item Cn1c(=O)c2c(ncn2C)n(C)c1=O
23000
